protocol summary: Stability of QC samples of the analytes in rat plasma under storage conditions
Format: physicochemical
conditions: spiked 8,000 ng/mL, −80°C for 7 days, n = 6
Procedure: Preparation of quality control (QC) samples with three concentrations (low, medium, and high) of 16, 160, and 3,200 ng/ml for ellagic acid; 1.6, 16, 320 ng/ml for protocatechuic acid, ethyl gallate and 1,2,3,4,6-O-pentagalloylglucose; 40, 400 and 8,000 ng/ml for chebulic acid, gallic acid, corilagin and chebulinic acid and 160, 1,600, 32000 ng/ml for chebulagic acid. Both QC samples and stock solutions were stored in a refrigerator at 4°C. […]
We begin with a simple list: items and their reported Measured concentration after storage.

Consider the reported Measured concentration after storage for these molecules:
molecule | result type | endpoint value
O=C(O)C[C@H](C(=O)O)[C@H]1c2c(cc(O)c(O)c2O)C(=O)O[C@@H]1C(=O)O [Chebulic acid, chebulic acid] | Measured concentration after storage | 6,878.6 ± 535.3 ng/mL
O=C(O)C[C@@H]1C(=O)O[C@H]2[C@H](OC(=O)c3cc(O)c(O)c(O)c3)[C@@H](OC(=O)c3cc(O)c(O)c4c3[C@H]1[C@H](O)C(=O)O4)[C@H](OC(=O)c1cc(O)c(O)c(O)c1)O[C@@H]2COC(=O)c1cc(O)c(O)c(O)c1 [Chebulinic acid, chebulinic acid] | Measured concentration after storage | 8,787.4 ± 801 ng/mL
O=C(O[C@@H]1O[C@@H]2COC(=O)c3cc(O)c(O)c(O)c3-c3c(cc(O)c(O)c3O)C(=O)O[C@H]([C@H]1O)[C@@H]2O)c1cc(O)c(O)c(O)c1 [Corilagin, corilagin] | Measured concentration after storage | 8,304.6 ± 362.4 ng/mL

Any idea what Measured concentration after storage was measured for O=C(O)c1cc(O)c(O)c(O)c1 [Gallic acid, gallic acid] ?
8,304.7 ± 418.5 ng/mL
